target: human HER3 endogenously expressed on human cancer cells (SK-Br-3, BT-474, MCF7) (human, UniProt P21860 20-1342); experiment: cell-based or functional assay
Reported Endpoint: BT474 pHER3 % inhibition (%)
# value in %; strip the unit string

Query block: # query: BT474 pHER3 % inhibition of entry MOR13655 (antibody, human IgG1, lambda, V domains shown, Tested as IgG) VH: QVQLVQSGAEVKKPGASVKVSCKASGYTFTSYDIHWVRQAPGQGLEWMGRIDPYSGNTNYAQKFQGRVTMTRDTSISTAYMELSRLRSEDTAVYYCARGSFYTRDSYFDVWGQGTLVTVSS VL: DIALTQPASVSGSPGQSITISCTGTSSDVGTYNQVSWYQQHPGKAPKLMIYGVSKRPSGVSNRFSGSKSGNTASLTISGLQAEDEADYYCSSATQKPDVTVFGGGTKLTVLG
Result block: 61

Query block: # query: BT474 pHER3 % inhibition of entry MOR12921 (antibody, human IgG1, lambda, V domains shown, Tested as IgG) VH: QVQLVQSGAEVKKPGASVKVSCKASGYTFTGYYMHWVRQAPGQGLEWMGDIDPHSGNAVYAQKFQGRVTMTRDTSISTAYMELSRLRSEDTAVYYCARGSFYTRDSYFDVWGQGTLVTVSS VL: DIALTQPASVSGSPGQSITISCTGTSSDVGTYNQVSWYQQHPGKAPKLMIYGVSKRPSGVSNRFSGSKSGNTASLTISGLQAEDEADYYCSSRDLIGHYVFGGGTKLTVLG
Result block: 65

Query block: # query: BT474 pHER3 % inhibition of entry MOR12604 (antibody, V domains shown, Tested as IgG) VH: QVQLVQSGAEVKKPGSSVKVSCKASGGTFSSYAISWVRQAPGQGLEWMGLIIPRYGKARYAQKFQGRVTITADESTSTAYMELSSLRSEDTAVYYCARNWPYYYMDFWGQGTLVTVSS VL: DIVLTQSPATLSLSPGERATLSCRASQNIVFNLAWYQQKPGQAPRLLIYDASNRATGVPARFSGSGSGTDFTLTISSLEPEDFAVYYCQQKKSMPLTFGQGTKVEIKR
Result block: 62
